Tested on: OVCAR-8 ovarian
assay-method-text: NCI tumour cell line growth inhibition, 48 h
Below, each entry is listed alongside its reported TGI.
result-type: TGI

>>> test_value("CC(C)(C)OC(=O)NC(Cc1ccc([N+](=O)[O-])cc1)C(=O)NC(CCCCNC(=O)OCc1ccccc1)C(=O)ON1C(=O)CCC1=O (stereo not drawn)")
"> 100 µM"
>>> test_value("Cc1ccc(S(=O)(=O)N/N=C2\\C=C[C@]3(CC2)C(=O)N(C)c2ccccc23)cc1")
"> 100 µM"
>>> test_value("NC(CCCCNc1ccn(C2OC(CO)C(O)C2O)c(=O)n1)C(=O)O (stereo not drawn)")
"> 100 µM"
>>> test_value("O=C(NC(Nc1ccc(F)c(Cl)c1)(C(F)(F)F)C(F)(F)F)C(C(F)(F)F)C(F)(F)F")
"> 100 µM"
>>> test_value("COc1ccc(NC(=O)C(=O)C2NC(=S)NC2=O)c(OC)c1 (stereo not drawn)")
"> 100 µM"
>>> test_value("COC(=O)C1(Cc2cccc(Cl)c2)CCCCCCN1C(=O)c1ccccc1 (stereo not drawn)")
"33.4 µM"
>>> test_value("CCOC(=O)c1nc2cc(C(F)(F)F)ccc2nc1Nc1ccc(Cl)c(Cl)c1")
"> 100 µM"
>>> test_value("Cc1nc2c(-c3ccccc3)[nH]c(C)c2c(=O)o1")
"> 100 µM"
>>> test_value("COC(=O)CCCCC/C(=C\\C(=O)C(Cl)(Cl)Cl)OC")
"73.6 µM"
>>> test_value("FC(F)(F)c1ccc(-c2cnc(Br)nc2NC2CCCCCC2)cc1")
"> 100 µM"
>>> test_value("CCCCCCCSCC(O)COC(c1ccccc1)(c1ccccc1)c1ccccc1 (stereo not drawn)")
"> 100 µM"
>>> test_value("COc1nc(=O)n(C2CC(N=[N+]=[N-])C(CO)O2)cc1C (stereo not drawn)")
"> 100 µM"
>>> test_value("CSC(=NCCN=C(NS(=O)(=O)c1ccc(Cl)cc1)SC)NS(=O)(=O)c1ccc(Cl)cc1")
"> 100 µM"

----------
Below, each entry is listed alongside its reported TGI.
System: KM20L2 colon
assay-method-text: NCI tumour cell line growth inhibition, 48 h
result-type: TGI

>>> test_value("CCC1(CN(C)C)CC/C(=C\\c2ccc3c(c2)OCO3)C1=O (stereo not drawn)")
"> 100 µM"
>>> test_value("Cc1ccc(NC(=O)C(=O)Cc2nc3ccccc3o2)c(C)c1")
"> 100 µM"
>>> test_value("C=C1C(C)C2C(Cc3ccccc3)NC(=O)C23C(OC(C)=O)/C=C/C(C)(O)CC(C)C/C=C/C3C1O (stereo not drawn)")
"> 100 µM"
>>> test_value("COc1cc(Br)c(CC2=NCCc3cc(OC)c(OC)cc32)cc1OC")
"> 100 µM"
>>> test_value("CCCCCCCCCC(=O)CC(=O)c1c(O)cccc1O")
"> 100 µM"
>>> test_value("COc1cc(CC2c3cc(OC)c(OC)cc3CCN2C)c(Oc2cc3c(cc2OC)-c2c(OC)c(OC)c(OC)c4c2C(C3)N(C)CC4)cc1OC (stereo not drawn)")
"17.8 µM"
>>> test_value("CCc1cccc(C)c1NC(=O)NS(=O)(=O)c1ccc(C)cc1")
"> 100 µM"
>>> test_value("CCN(CC)CCCNC(=O)Cc1ccccc1Nc1c(Cl)cccc1Cl")
"12.4 µM"

----------
Tested on: SK-MEL-5 melanoma
assay-method-text: NCI tumour cell line growth inhibition, 48 h
result-type: TGI

>>> test_value("c1ccc2c3nnc(c2c1)SCCSCCSc1nnc(c2ccccc12)SCCSCCS3")
"> 100 µM"
>>> test_value("CCOC(=O)C12CC1(C(=O)OCC)C1CCC2C1 (stereo not drawn)")
"> 100 µM"
>>> test_value("Oc1ccc2ccccc2c1N=Nc1ccccc1")
"> 100 µM"

----------
Test system: HCC-2998 colon
assay-method-text: NCI tumour cell line growth inhibition, 48 h
Below, each entry is listed alongside its reported TGI.
result-type: TGI

>>> test_value("CC(=O)Oc1c(OC(C)=O)c(-c2ccc(O)c(O)c2)c(O)c(O)c1-c1ccc(O)cc1")
"> 100 µM"
>>> test_value("S=C(Nc1ccc(Br)cn1)NC12CC3CC(CC(C3)C1)C2")
"83.3 µM"
>>> test_value("COc1cc2c(c(OC)c1OC)C(=O)CC2N (stereo not drawn)")
"> 100 µM"

----------
Tested on: A498 renal
assay-method-text: NCI tumour cell line growth inhibition, 48 h
Below, each entry is listed alongside its reported TGI.
result-type: TGI

>>> test_value("CC(=O)OC1CCC2(C)C(=CC(C3C=C4CC(OC(C)=O)CCC4(C)C4=C3C3CC5OC6(CCC(C)CO6)C(C)C5C3(C)CC4)C3=C2CCC2(C)C3CC3OC4(CCC(C)CO4)C(C)C32)C1 (centres undefined)")
"30.8 µM"
>>> test_value("Cn1ccnc1C(=O)/C=C/c1ccc(C(=O)Nc2nc3ccccc3[nH]2)cc1")
"> 25 µM"
>>> test_value("CC1(C)OCN(c2ccc(Cl)cc2)Cn2c1nc1ccccc12")
"> 100 µM"
>>> test_value("CCC1(CN(C)C)CC/C(=C\\c2ccc3c(c2)OCO3)C1=O (centres undefined)")
"> 100 µM"
>>> test_value("C[C@H]1[C@@H](OCC(CO[C@H]2O[C@@H]3O[C@@]4(C)CC[C@H]5[C@H](C)CC[C@@H]([C@H]2C)[C@@]35OO4)=NOCC(=O)O)OC2O[C@@]3(C)CC[C@H]4[C@H](C)CC[C@@H]1[C@@]24OO3 (some centres undefined)")
"19.6 µM"
>>> test_value("CCCc1c2c3ccccc3nc-2nc2ccccn12")
"> 100 µM"
>>> test_value("COC(=O)CCC1=C(C)c2cc3[n-]c(cc4nc(cc5[n-]c(cc1n2)c(CCC(=O)OC)c5C)C=C4C)cc3C.[Cd+2]")
"26.3 µM"
>>> test_value("COC(=O)C1=C(O)C(C(=O)OC)[C@]2(O)[C@H](C(=O)OC)[C@H]1C[C@@H](c1ccc(OC)cc1)[C@H]2C(=O)OC (some centres undefined)")
"34.9 µM"
>>> test_value("COc1ccc(C(Nc2ncccn2)c2cc3c(cc2O)OCO3)cc1 (centres undefined)")
"> 100 µM"

----------
Test system: SN12C renal
assay-method-text: NCI tumour cell line growth inhibition, 48 h
Below, each entry is listed alongside its reported TGI.
result-type: TGI (µM)

>>> test_value("O=C(C1OC1c1ccc([N+](=O)[O-])cc1)C12CC3CC(CC(C3)C1)C2 (stereo not drawn)")
29.7
>>> test_value("C[Se]C(=O)CC1=C2C=C(F)C=CC2/C(=C\\c2ccc(S(C)=O)cc2)C1C (stereo not drawn)")
1.34
>>> test_value("COc1ccc(-c2ccc(-c3ccc(C(=N)N)cn3)s2)cc1Cl")
3.39
>>> test_value("COc1ccc(/C=C2\\COc3ccc(-c4ccccc4)cc3C2=O)cc1O")
14.5
>>> test_value("C=CCn1c(=O)c(C)cn(/C(=C/C(=O)OCC)C(=O)OCC)c1=O")
29.7

----------
Test system: HCT-116 colon
assay-method-text: NCI tumour cell line growth inhibition, 48 h
result-type: TGI

>>> test_value("C[C@@H]1OC(=O)C[C@H]2CC(=O)N(CCc3cn(S(=O)(=O)C(F)(F)F)c4ccccc34)C[C@@H]21")
"> 100 µM"
>>> test_value("CC1=C(C(=O)OC(C)C)C(c2ccccc2[N+](=O)[O-])C(C(=O)OC(CO[N+](=O)[O-])CO[N+](=O)[O-])=C(C)N1 (configuration not stated)")
"11.4 µM"
>>> test_value("COc1ccc(O)c2c1C(=O)CCCC2=O")
"> 100 µM"
>>> test_value("COC(=O)C1=C(C(=O)OC)C2(C(=O)OC)OC1(OC)C(C1(C(=O)OC)C(C(=O)OC)=C1C(=O)OC)=C2C(=O)OC (configuration not stated)")
"> 100 µM"
>>> test_value("Nc1cccc(OCc2nc(N)nc(N)c2-c2ccc(Cl)cc2)c1")
"> 100 µM"
>>> test_value("C[N+]1(C)CN(c2ccccc2)C2(CCN(CCCC(=O)c3cccs3)CC2)C1=O")
"> 100 µM"
>>> test_value("C[C@@H]1CC[C@@]2(OC1)O[C@H]1C[C@H]3[C@@H]4CC=C5C[C@@H](O[C@@H]6O[C@H](CO)[C@@H](O[C@@H]7O[C@@H](CO)[C@H](O)[C@H]7O)[C@H](O)[C@H]6O[C@@H]6O[C@@H](C)[C@H](O)[C@@H](O)[C@H]6O)CC[C@]5(C)[C@H]4CC[C@]3(C)[C@H]1[C@@H]2C")
"2.09 µM"

----------
Test system: UACC-257 melanoma
assay-method-text: NCI tumour cell line growth inhibition, 48 h
result-type: TGI

>>> test_value("C[N+]1(C)CN(c2ccccc2)C2(CCN(CCCC(=O)c3cccs3)CC2)C1=O")
"> 100 µM"
>>> test_value("Nc1cccc(OCc2nc(N)nc(N)c2-c2ccc(Cl)cc2)c1")
"> 100 µM"
>>> test_value("Cc1cc(C)nc(NS(=O)(=O)c2ccc(NC(=O)c3cccc4cc5ccccc5nc34)cc2)n1")
"> 100 µM"
